Entry source: the supplement of paper PMC10724198

Test system: Saccharomyces cerevisiae
Test Name: protein stability index of tFT-peptide fusion (C-terminal peptide) (PSI (0-1 scale)); higher = more stable (slower turnover)
Recorded Conditions: genetic background: wild type; temperature: 30 C
Known protein stability index of a selection of sequences
Observed Property: protein stability index

- VGCSSHAFGSSV: 0.686
- PFHPSPLPAPHF: 0.638
- NKSHFGHSCYLR: 0.64
- LLFRPTPCLPPL: 0.686
- FFYVFPFFIFRF: 0.406
- FSAVVCPTVFLC: 0.185
- LGKWWDEECGEI: 0.783
- RTTSFVLSYRRE: 0.66
- PPTPPPVPPPWS: 0.669
- VKVKRCVRKVGG: 0.687
- HLWAPRQNTIRY: 0.649
- RRCRPPTRRTKE: 0.587
- GGWAHGEGAGDC: 0.614
- LFPSFRSLSFVI: 0.672
- RWGLCFVHVTMF: 0.173
- LPNLTIPSRAIA: 0.623
- RPLALHSYPCSP: 0.677
- HFSTSFYSSAFR: 0.631
- RVCVFVLFGLCF: 0.383

* * *

Tested on: Saccharomyces cerevisiae
Test Name: protein stability index of tFT-peptide fusion (C-terminal peptide) (PSI (0-1 scale)); higher = more stable (slower turnover)
Recorded Conditions: genetic background: wild type; temperature: 30 C
Answer Not fulfilled if protein stability index is under 0.7, and Fulfilled if it is 0.7 or more.

* VSNNLIIDEETF [BIM1 C-terminal 12 aa] | Fulfilled
* KKQLLPSKTVDN [HED1 C-terminal 12 aa] | Not fulfilled
* TVIALLVGWIYY [SCS22 C-terminal 12 aa] | Not fulfilled
* AKSEDISCVLII [YPL238C C-terminal 12 aa] | Not fulfilled
* GSGDEPDSKRRK [YCR051W C-terminal 12 aa] | Not fulfilled
* DVQGICLRNDKK [SLX4 C-terminal 12 aa] | Not fulfilled
* NEASKATGASVH [YOP1 C-terminal 12 aa] | Fulfilled
* EELLNQPPEEQI [GPX1 C-terminal 12 aa] | Fulfilled
* FKLHNETRCRNR [VPS71 C-terminal 12 aa] | Not fulfilled
* KADNWKCKIQSA [GDA1 C-terminal 12 aa] | Not fulfilled
* WKQGGGDFRTKK [RBA50 C-terminal 12 aa] | Not fulfilled
* SYEIFEGSKKVM [CET1 C-terminal 12 aa] | Not fulfilled
* TEEVEKAISKSQ [YFH1 C-terminal 12 aa] | Fulfilled
* HAKGSGNTMNRG [TAP42 C-terminal 12 aa] | Not fulfilled
* TKDGEVVKESKK [PET117 C-terminal 12 aa] | Not fulfilled
* IKCKMPWSSPRQ [YOR238W C-terminal 12 aa] | Fulfilled
* EELRPDTLESEL [REC107 C-terminal 12 aa] | Not fulfilled
* EFLTNSILTRRK [COQ1 C-terminal 12 aa] | Not fulfilled
* IGTLIPEPGVNV [DAP1 C-terminal 12 aa] | Not fulfilled
* VSSLRKHGEHYS [TRM82 C-terminal 12 aa] | Not fulfilled
* GWLQDKHFEKYL [YOR338W C-terminal 12 aa] | Not fulfilled
* LIQFLEPSKRVA [YPT35 C-terminal 12 aa] | Fulfilled
* KFDKALYKKTTG [YMR206W C-terminal 12 aa] | Not fulfilled
* FYSVFALMVIFV [YIP1 C-terminal 12 aa] | Not fulfilled
* TSTITTTITMTL [SHE10 C-terminal 12 aa] | Not fulfilled
* EPFGPKMSTVQV [YHB1 C-terminal 12 aa] | Not fulfilled
* AARADRGANFRD [SPT16 C-terminal 12 aa] | Fulfilled
* ETVGYEAYLENK [ADE2 C-terminal 12 aa] | Not fulfilled
* KKKSKSSKKVKV [ESF1 C-terminal 12 aa] | Not fulfilled
* QRIEGMLQLLTS [UTP15 C-terminal 12 aa] | Not fulfilled
* LMETSKDVDSHP [DMA2 C-terminal 12 aa] | Fulfilled

* * *

System: Saccharomyces cerevisiae
Test Name: protein stability index of tFT-peptide fusion (C-terminal peptide) (PSI (0-1 scale)); higher = more stable (slower turnover)
Recorded Conditions: genetic background: wild type; temperature: 30 C
Known protein stability index of a selection of sequences
Observed Property: protein stability index

- CPSVEEIANETE [GCV2 C-terminal 12 aa]: 0.653
- AGHSNTLQVSTV [CDC19 C-terminal 12 aa]: 0.687
- QNLLPAEKFTHN [CTR1 C-terminal 12 aa]: 0.663
- SRSGPDSTNIKL [MPP10 C-terminal 12 aa]: 0.667
- FSNLLWFDQNFA [STB4 C-terminal 12 aa]: 0.786
- AMFNDIWKNANE [UPS3 C-terminal 12 aa]: 0.711
- MASVVKGNATSA [PHO90 C-terminal 12 aa]: 0.688
- WLDCTTLPNYQG [KAP122 C-terminal 12 aa]: 0.707
- ECAPVPPAVRSY [SDH9 C-terminal 12 aa]: 0.68
- NLKLKFNENIME [DIT2 C-terminal 12 aa]: 0.639
- GDYTVKQPEATK [AIM9 C-terminal 12 aa]: 0.672
- INGIIDPSELSD [ALO1 C-terminal 12 aa]: 0.68

* * *

Tested on: Saccharomyces cerevisiae
Test Name: protein stability index of tFT-peptide fusion (C-terminal peptide) (PSI (0-1 scale)); higher = more stable (slower turnover)
Recorded Conditions: genetic background: doa10 deletion; temperature: 30 C
Observed Property: protein stability index

* FALVSLSFALVE | 0.28
* SRFFSCCVFPSF | 0.676
* KTSVLLCVSTSF | 0.442
* GRPYHLCLFSCF | 0.333
* FSCWLFMLCVFL | 0.37
* RGVGSGGLEGIG | 0.51
* ARFFFFCVGILI | 0.295
* SVSRIFRTFSCY | 0.216
* LGGVGTLVHCFV | 0.351
* VWCVFHVWSGRL | 0.38
* KIIKERIRRIKI | 0.153
* VVWFCGFFFVMV | 0.365
* SLCVVIFFSSIT | 0.252
* RGFIYCSFVVRL | 0.301
* VWPLAFFLRFFI | 0.247
* GFFFFHGLCFFV | 0.358
* GLSGFLLLIVLY | 0.252
* GSMGGVGVLGGD | 0.486
* LSVVVLVLCVLL | 0.268
* YLVFSLCSYRFL | 0.36
* SLRICACMTVSW | 0.366
* VPASWLRMLAFC | 0.0659
* SSVGLFVLLCLV | 0.2
* MVVSLVLCFWAS | 0.222
* GYRGRITRLVNG | 0.14
* FSLWSRRSITVY | 0.0595
* DLPKAYCIEMIG | 0.198
* VCQVCVCFLFWR | 0.27
* LIAGTRRIPLFI | 0.225
* RWRLWVGWWVVG | 0.104
* FCSNLLSMVIAV | 0.265
* VFSAIPDWLILA | 0.279
* RPHPLHIPRRLA | 0.146
* RVCVFVLFGLCF | 0.309
* TRKKENERRKNG | 0.245
* FYFLSFLLLLSP | 0.223
* WVFMVILLVFLV | 0.28
* SCLFMLFPLVSV | 0.412
* KIRGYLMPLTLL | 0.466
* LYRSLLLSFCVL | 0.407
* VVTFLCPLVGHV | 0.341
* SGWGCRMVVCAG | 0.152
* VRVFSLVVCWVV | 0.199
* CSKGLSILLLLL | 0.301
* PCVLAIYVWIRS | 0.083
* LPSRWVPLPTPA | 0.38
* FGSFVVWGVWWG | 0.352
* CWFGLVSLFWVV | 0.275
* FICLLFSCVYLG | 0.378
* ARVSLSFVSVSA | 0.225
* IISICLYFLVRC | 0.212
* VVAALTPLITVA | 0.151
* RRVFPLIIVLLF | 0.174
* DLAWAIGRLTKG | 0.653
* SILFSYFCFFLL | 0.274
* YVASSWRHCFII | 0.145
* ASIEVGNVIKQM | 0.375
* PVLSLPPLSSPP | 0.691
* AFRLRHEIISLM | 0.136
* ALFLYNCVVVTD | 0.132
* YCFLSWVLMCCF | 0.421
* FSRPTYYFIRHS | 0.26
* LFSSFFVFRLLV | 0.0949
* TPYIFVLACLHV | 0.274
* LFFVVFFLLFLL | 0.389
* SFFWAMSLLCFV | 0.402
* LGRYHPWLLFLC | 0.0687
* WIGCTVKIASLY | 0.219
* KLKTSHILIKQT | 0.156
* PPGLLPPCLLVV | 0.249
* RIWRLLIIIIKK | 0.232
* LLYPSKFCITAI | 0.248
* IVEVNCILMWIF | 0.345
* LPIFWVWFSVFR | 0.334
* LFLEVCFFRLYF | 0.46
* GWVVWLTGCLVF | 0.407
* TSFCIFFVRFVI | 0.277
* ILLHSFFSFYLL | 0.289
* LSFLFFRLCSFF | 0.157
* VFSVTVVFVSVL | 0.168
* STVGAWGRVGEG | 0.45
* HIVYCSSEQIKC | 0.482
